Assay: Solubilization experiments, general procedure 1 (active ingredient content by UV spectroscopy or HPLC)
Details: pH 7, aqueous buffer, thermodynamic from solid
solubility at 72 h by entry:
Response body: numeric value in µg/mL, unit text excluded.

- compound: "NC(=O)N1c2ccccc2C=Cc2ccccc21 [Carbamazepine]"
  solubility at 72 h / µg/mL: 140

Now consider the entry below.
### Prompt What does the record list as solubility at 72 h for `CN1C(C(=O)Nc2ccccn2)=C(O)c2ccccc2S1(=O)=O` ?
### Response 420

Data provenance: patent US9426986B2
